Sourced from patent EP0613890A1

Below, each of the compounds is paired with its reported Rate of Survival (%) value.
tested on: Candida albicans IFO 1270; assay: Survival of mice intravenously inoculated with Candida albicans, oral treatment (Test Example 2); format: in vivo; details: male ddy mice, i.v. Candida albicans IFO 1270 (1 x 10⁸ cells/kg); 10 mg/kg orally once a day for three days; 10th day from inoculation

compound: CC(=Cn1cncn1)C(O)(Cn1cncn1)c1ccc(F)cc1 (stereo not drawn)
u: %
Rate of Survival (%): 100

compound: C/C(=C\C#Cc1ccc(F)cc1)C(O)(Cn1cncn1)c1ccc(F)cc1F (racemic)
u: %
Rate of Survival (%): 100

compound: CC(=O)N1CCN(c2ccc(OC[C@H]3CO[C@](Cn4ccnc4)(c4ccc(Cl)cc4Cl)O3)cc2)CC1 (relative stereo) [compound A, reference compound]
u: %
Rate of Survival (%): 20

compound: C/C(=C\C=C\c1ccc(C(F)(F)F)cc1)C(O)(Cn1cncn1)c1ccc(F)cc1F (racemic)
u: %
Rate of Survival (%): 100

compound: C/C(=C\c1ccc(C(=O)NNC=O)cc1)C(O)(Cn1cncn1)c1ccc(F)cc1F (racemic)
u: %
Rate of Survival (%): 60

compound: C/C(=C\c1ccccn1)C(O)(Cn1cncn1)c1ccc(F)cc1F (racemic)
u: %
Rate of Survival (%): 20

compound: C/C(=C\c1cccs1)C(O)(Cn1cncn1)c1ccc(F)cc1F (racemic)
u: %
Rate of Survival (%): 40

compound: C/C(=C\c1ccc(CO)cc1)C(O)(Cn1cncn1)c1ccc(F)cc1F (racemic)
u: %
Rate of Survival (%): 40

compound: C/C(=C\c1ccc(C#N)cc1)C(O)(Cn1cncn1)c1ccc(F)cc1F (racemic)
u: %
Rate of Survival (%): 100

###

Growth Inhibition (%) reference
test system: Candida albicans IFO 1270; assay: Growth inhibition of Candida albicans in Sabouraud's glucose broth (Test Example 1); type: cell-based; settings: 10 µg/mℓ; Candida albicans IFO 1270, Sabouraud's glucose broth
endpoint.name: Growth Inhibition (%)

molecule: C/C(=C\c1ccc(CO)cc1)C(O)(Cn1cncn1)c1ccc(F)cc1F (racemic) [compound 4]
endpoint.name: Growth Inhibition (%)
measured.result: 65

molecule: C/C(=C\c1cccs1)C(O)(Cn1cncn1)c1ccc(F)cc1F (racemic) [compound 10]
endpoint.name: Growth Inhibition (%)
measured.result: 62

molecule: C/C(=C\C#Cc1ccc(F)cc1)C(O)(Cn1cncn1)c1ccc(F)cc1F (racemic) [compound 36]
endpoint.name: Growth Inhibition (%)
measured.result: 78

molecule: C/C(=C\c1ccc(C(=O)N2CCOCC2)cc1)C(O)(Cn1cncn1)c1ccc(F)cc1F (racemic) [Compound No. 3]
endpoint.name: Growth Inhibition (%)
measured.result: 76

molecule: C/C(=C\C=C\c1ccc(C(F)(F)F)cc1)C(O)(Cn1cncn1)c1ccc(F)cc1F (racemic) [compound 37]
endpoint.name: Growth Inhibition (%)
measured.result: 78

molecule: C/C(=C\c1ccc(OC(F)(F)F)cc1)C(O)(Cn1cncn1)c1ccc(F)cc1F (racemic) [Compound No. 6]
endpoint.name: Growth Inhibition (%)
measured.result: 86

molecule: C/C(=C\c1ccc(C#N)cc1)C(O)(Cn1cncn1)c1ccc(F)cc1F (racemic) [Compound No. 5]
endpoint.name: Growth Inhibition (%)
measured.result: 96

###

Reported Rate of Survival (%) is given for each of the following compounds.
tested on: Candida albicans IFO 1270; test: Survival of mice intravenously inoculated with Candida albicans, oral treatment (Test Example 2); format: in vivo; conditions: male ddy mice, i.v. Candida albicans IFO 1270 (1 x 10⁸ cells/kg); 10 mg/kg orally once a day for three days; 10th day from inoculation

compound: C/C(=C\Sc1ccc(F)cc1)C(O)(Cn1cncn1)c1ccc(F)cc1 (racemic)
u: %
Rate of Survival (%): 40
//
compound: C/C(=C\c1ccc(C(=O)N2CCOCC2)cc1)C(O)(Cn1cncn1)c1ccc(F)cc1F (racemic)
u: %
Rate of Survival (%): 40
//
compound: C/C(=C\c1ccc(OC(F)(F)F)cc1)C(O)(Cn1cncn1)c1ccc(F)cc1F (racemic)
u: %
Rate of Survival (%): 100
//
compound: C/C(=C\c1ccc(OCC(F)(F)C(F)F)cc1)C(O)(Cn1cncn1)c1ccc(F)cc1F (racemic)
u: %
Rate of Survival (%): 100
